target: Voltage-dependent T-type calcium channel subunit alpha-1H (Homo sapiens, UniProt O95180); assay type: functional;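 note: channel activity triggered by adding a high calcium stimulation buffer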
Sequence (O95180 whole entry): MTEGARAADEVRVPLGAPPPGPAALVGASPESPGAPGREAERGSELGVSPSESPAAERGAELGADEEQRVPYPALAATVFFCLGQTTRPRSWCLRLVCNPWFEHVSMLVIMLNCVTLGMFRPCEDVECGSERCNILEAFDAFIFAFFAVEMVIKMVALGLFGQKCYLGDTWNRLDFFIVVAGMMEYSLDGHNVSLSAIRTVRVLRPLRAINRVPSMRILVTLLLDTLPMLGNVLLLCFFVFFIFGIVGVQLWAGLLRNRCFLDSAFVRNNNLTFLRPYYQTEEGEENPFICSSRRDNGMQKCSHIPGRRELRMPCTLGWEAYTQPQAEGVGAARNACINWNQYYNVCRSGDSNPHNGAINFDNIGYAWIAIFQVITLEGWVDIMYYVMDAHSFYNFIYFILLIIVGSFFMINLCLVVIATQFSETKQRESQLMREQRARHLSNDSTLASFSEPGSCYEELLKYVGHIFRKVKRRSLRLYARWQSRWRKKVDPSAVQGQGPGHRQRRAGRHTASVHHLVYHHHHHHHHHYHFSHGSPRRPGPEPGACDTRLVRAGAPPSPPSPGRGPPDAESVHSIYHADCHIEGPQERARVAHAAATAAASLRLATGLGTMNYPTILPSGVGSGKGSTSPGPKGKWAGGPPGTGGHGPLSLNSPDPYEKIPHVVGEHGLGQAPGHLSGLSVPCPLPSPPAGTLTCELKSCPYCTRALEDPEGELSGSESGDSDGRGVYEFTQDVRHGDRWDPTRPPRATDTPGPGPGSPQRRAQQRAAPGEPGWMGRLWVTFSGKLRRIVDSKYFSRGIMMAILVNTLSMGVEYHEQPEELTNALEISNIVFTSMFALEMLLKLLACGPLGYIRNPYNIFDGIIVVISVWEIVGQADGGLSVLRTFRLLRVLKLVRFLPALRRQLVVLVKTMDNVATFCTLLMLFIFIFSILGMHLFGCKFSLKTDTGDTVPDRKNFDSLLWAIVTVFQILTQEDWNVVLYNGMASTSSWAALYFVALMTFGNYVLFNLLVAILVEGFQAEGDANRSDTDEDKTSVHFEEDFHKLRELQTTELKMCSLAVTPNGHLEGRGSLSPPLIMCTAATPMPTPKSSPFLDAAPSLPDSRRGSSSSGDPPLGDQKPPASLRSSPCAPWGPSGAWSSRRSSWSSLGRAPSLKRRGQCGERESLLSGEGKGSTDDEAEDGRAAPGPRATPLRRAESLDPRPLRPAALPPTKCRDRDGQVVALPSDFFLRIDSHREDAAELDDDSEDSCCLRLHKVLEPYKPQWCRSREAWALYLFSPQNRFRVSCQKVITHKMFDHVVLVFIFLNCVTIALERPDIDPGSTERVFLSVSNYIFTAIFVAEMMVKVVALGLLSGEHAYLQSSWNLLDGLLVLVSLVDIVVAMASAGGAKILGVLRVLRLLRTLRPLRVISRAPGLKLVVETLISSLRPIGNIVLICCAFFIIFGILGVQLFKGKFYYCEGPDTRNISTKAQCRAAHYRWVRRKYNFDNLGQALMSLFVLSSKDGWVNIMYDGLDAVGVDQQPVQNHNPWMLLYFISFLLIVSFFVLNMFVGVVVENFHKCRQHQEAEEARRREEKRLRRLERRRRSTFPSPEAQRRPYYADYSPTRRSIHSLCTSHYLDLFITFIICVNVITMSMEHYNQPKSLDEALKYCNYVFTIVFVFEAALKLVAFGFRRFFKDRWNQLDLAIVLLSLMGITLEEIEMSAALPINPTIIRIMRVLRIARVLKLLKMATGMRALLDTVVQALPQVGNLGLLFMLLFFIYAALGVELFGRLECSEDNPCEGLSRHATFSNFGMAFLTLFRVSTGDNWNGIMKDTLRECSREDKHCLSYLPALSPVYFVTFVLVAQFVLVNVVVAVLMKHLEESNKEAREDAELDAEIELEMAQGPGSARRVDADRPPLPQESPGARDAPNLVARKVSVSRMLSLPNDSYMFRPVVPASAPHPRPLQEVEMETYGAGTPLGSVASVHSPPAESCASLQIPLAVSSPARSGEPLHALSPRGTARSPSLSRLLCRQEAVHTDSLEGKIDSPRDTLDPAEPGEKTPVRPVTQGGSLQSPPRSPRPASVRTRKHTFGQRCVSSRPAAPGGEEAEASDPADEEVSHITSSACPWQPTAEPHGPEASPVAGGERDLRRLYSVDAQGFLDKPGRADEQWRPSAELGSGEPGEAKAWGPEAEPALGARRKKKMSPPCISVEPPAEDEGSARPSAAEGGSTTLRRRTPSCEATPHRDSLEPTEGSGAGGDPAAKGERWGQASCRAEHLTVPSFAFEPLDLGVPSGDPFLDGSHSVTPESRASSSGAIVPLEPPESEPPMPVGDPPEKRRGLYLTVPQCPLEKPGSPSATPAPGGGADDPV
Calls of active or inactive are those of the source.
The following compounds are shown together with reported EC50 values.

compound	result
COc1ccccc1N1CCN(CC(O)COc2cccc3ccccc23)CC1 (configuration not stated) [NAFTOPIDIL]	3.72 µM (active)

Prompt: Item CCN(Cc1ccccc1)C(=O)CCc1nc(-c2ccc(C)cc2)no1 has what recorded EC50?
Completion: 4.8 µM (active)

Prompt: Queued: O=C(Nc1ccc(S(=O)(=O)Nc2ccccc2)cc1)C1COc2ccccc2O1 (configuration not stated)
Completion: 3.37 µM (active)

Prompt: Here is the next compound: O=C(CSc1ccc(Cl)cc1)N1CCN(c2ncc(C(F)(F)F)cc2Cl)CC1
Completion: 5.86 µM (active)

Prompt: Now the compound Cc1ccc2nc(-c3cccnc3SCC(=O)N3c4ccccc4CC3C)[nH]c2c1 (configuration not stated)
Completion: 11.2 µM (active)

Prompt: Same for O=C(CSc1ncn(-c2ccccc2)n1)Nc1ccc(Br)cn1
Completion: 5.67 µM (active)

Prompt: Param item: O=C(Nc1cccc(F)c1)C1CCN(c2nnnn2-c2ccccc2)CC1
Completion: 53.6 µM (active)

* * *

# maps each entry to its AC50
target: UniProt P9WQ81; experiment: Mycobacterium tuberculosis BioA enzyme inhibitor Measured in Biochemical System Using Plate Reader - 2163-02_Inhibitor_Dose_CherryPick_Activity.; type: functional, Mycobacterium tuberculosis UT205
Sequence (P9WQ81 whole entry): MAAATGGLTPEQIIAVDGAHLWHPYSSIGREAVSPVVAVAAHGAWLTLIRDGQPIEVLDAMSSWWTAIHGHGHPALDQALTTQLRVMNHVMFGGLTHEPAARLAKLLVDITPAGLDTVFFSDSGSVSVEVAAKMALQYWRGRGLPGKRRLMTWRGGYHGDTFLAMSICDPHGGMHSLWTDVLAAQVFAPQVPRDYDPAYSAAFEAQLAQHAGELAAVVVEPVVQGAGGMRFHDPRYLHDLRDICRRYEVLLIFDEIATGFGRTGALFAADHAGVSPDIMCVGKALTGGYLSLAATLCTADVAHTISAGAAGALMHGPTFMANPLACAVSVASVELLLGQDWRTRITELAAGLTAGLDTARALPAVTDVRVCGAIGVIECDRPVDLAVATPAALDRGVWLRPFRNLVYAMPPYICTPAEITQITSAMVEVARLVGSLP
Calls of active or inactive are those of the source.

compound	AC50
O=C(C[n+]1cc(-c2ccc(Cl)cc2)n2c1CCC2)N1c2ccccc2Sc2ccccc21	6.34 µM (active)
CC(=O)CSc1nnc(CSc2ncccn2)n1C1CCCCC1	13.9 µM (active)

Prompt: Which AC50 reading was recorded for the compound O=[N+]([O-])c1ccc(C[n+]2c(-c3ccccc3)cc(-c3ccccc3)cc2-c2ccccc2)cc1.[O-][Cl+3]([O-])([O-])[O-] ?
Completion: 4.55 µM (active)

Prompt: And what about the compound O=C(CSc1nnc(-c2ccncc2)n1-c1ccc(Cl)cc1)NCc1cccs1 ?
Completion: 9.86 µM (active)

Prompt: Continue with COc1ccc(-c2nc3cnccn3c2Nc2ccc3c(c2)OCO3)cc1
Completion: 0.702 µM (active)

Prompt: Further, for Cc1nc2sc(C(c3ccc(Cl)cc3)N3CCN(c4ccccc4F)CC3)c(O)n2n1 (stereo unspecified) ?
Completion: 1.69 µM (active)

* * *

Entries annotated with measured AC50
Target chain: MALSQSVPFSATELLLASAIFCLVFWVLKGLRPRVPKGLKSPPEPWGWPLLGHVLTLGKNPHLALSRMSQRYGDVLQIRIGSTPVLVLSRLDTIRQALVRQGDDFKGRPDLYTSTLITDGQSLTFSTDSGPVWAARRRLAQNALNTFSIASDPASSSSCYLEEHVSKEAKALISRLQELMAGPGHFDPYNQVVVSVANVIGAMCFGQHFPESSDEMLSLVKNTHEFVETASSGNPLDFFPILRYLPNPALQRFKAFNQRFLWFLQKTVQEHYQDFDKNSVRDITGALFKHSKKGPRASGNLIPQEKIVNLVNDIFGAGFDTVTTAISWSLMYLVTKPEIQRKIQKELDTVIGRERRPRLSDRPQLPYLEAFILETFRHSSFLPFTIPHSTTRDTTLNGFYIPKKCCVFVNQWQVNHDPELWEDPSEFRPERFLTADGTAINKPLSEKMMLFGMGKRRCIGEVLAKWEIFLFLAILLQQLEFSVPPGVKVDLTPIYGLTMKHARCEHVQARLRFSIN

Record excerpt, results attached:
Oc1ccc(CNCc2ccccc2)c2cccnc12 5.01 µM (inconclusive)
CC1(C)CC(=O)C(CCCN2C(=O)c3ccccc3C2=O)C(=O)C1 28.2 µM (inconclusive)
COc1ccc2[nH]cc(CCNc3ncnc4ccc(-c5ccc(C(=O)N(C)C)cc5)cc34)c2c1 12.6 µM (inconclusive)
NS(=O)(=O)c1ccc(NC2(C(=O)O)CCCC2)cc1 0.794 µM (inconclusive)
COc1cccc(Nc2ncc3nc(-c4cc(F)cc(F)c4)c(=O)n(C4CC4)c3n2)c1 6.31 µM (inconclusive)
CC1(C)N=C(N)N=C(N)N1c1cccc(OCc2cccc([N+](=O)[O-])c2)c1 5.01 µM (inconclusive)

Prompt: // lookup AC50 for O=C(O)[C@@H]1[C@@H]2C[C@H]3c4[nH]c5ccccc5c4CCN3C[C@@H]2CC[C@@H]1O
Completion: 12.6 µM (inconclusive)

Prompt: Repeat for the following molecule: O=C(Oc1oc(-c2ccco2)nc1/C=N/c1ccc(Cl)cc1)c1ccco1
Completion: 15.8 µM (inconclusive)

Prompt: Another molecule to look at: c1ccc2c3c([nH]c2c1)[C@@H]1[C@H]2CC[C@H]([C@H]4CCCN[C@H]42)N1CC3
Completion: 15.8 µM (inconclusive)

Prompt: Now consider COc1ccc(-n2c(=O)c(-c3ccccc3)nc3cnc(N4CCOCC4)nc32)cc1 and answer again.
Completion: 15.8 µM (inconclusive)

* * *

Target: Corticotropin-releasing factor receptor 2/Corticotropin-releasing factor-binding protein (Homo sapiens, UniProt P24387+Q13324)
Sequence (Q13324 whole entry): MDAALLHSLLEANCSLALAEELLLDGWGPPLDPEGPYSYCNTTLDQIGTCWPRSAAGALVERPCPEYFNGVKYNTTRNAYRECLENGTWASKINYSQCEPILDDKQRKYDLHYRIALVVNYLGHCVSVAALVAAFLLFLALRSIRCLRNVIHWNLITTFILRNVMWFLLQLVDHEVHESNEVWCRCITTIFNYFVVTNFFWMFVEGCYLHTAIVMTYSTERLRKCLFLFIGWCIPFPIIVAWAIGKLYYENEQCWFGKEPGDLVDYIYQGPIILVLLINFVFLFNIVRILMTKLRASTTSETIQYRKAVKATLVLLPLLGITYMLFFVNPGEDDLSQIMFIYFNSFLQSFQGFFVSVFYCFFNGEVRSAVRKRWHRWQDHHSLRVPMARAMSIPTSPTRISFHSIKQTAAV
Sequence (P24387 whole entry): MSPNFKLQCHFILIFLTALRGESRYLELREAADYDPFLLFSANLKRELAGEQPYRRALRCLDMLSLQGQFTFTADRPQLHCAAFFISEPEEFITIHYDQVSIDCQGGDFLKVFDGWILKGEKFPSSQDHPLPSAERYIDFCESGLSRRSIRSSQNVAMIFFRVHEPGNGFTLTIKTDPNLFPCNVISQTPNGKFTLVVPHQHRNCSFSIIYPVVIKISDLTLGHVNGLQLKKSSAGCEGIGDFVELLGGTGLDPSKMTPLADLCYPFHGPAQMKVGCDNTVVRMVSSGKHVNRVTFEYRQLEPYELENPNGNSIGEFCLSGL
Assay: activators of CRF receptor 2 with binding protein – uHTS hits, confirmation (AID 602473)
Type: functional
Conditions: read-out: EC50_Mean
The source made the active and inactive calls.
Answer with one of the outcomes active, inactive

compound	label.value
CSc1nc(-c2ccc(N(C)C)cc2)c(C#N)c(=O)n1C	active
CC(C)(C)NC(=O)C(c1ccc(O)cc1)N(Cc1ccc2c(c1)OCO2)C(=O)CCl (stereo not given)	inactive
O=C(NCCCO)C(=O)Nc1cc2c3c(c1)CCN3C(=O)CC2	inactive
O=C(c1cccc(NS(=O)(=O)c2ccc(F)c(F)c2)c1)N1CCN(C(c2ccccc2)c2ccccc2)CC1	inactive

Turning now to a further compound:
Prompt: Which result was noted for this compound in the test: O=C(O)c1cnn(-c2nc(-c3ccc(Cl)c(Cl)c3)cs2)c1C(F)(F)F
Completion: active

* * *

Known EC50 of a selection of compounds
Biological target: Streptokinase A (Streptococcus pyogenes serotype M1, UniProt P10520)
Sequence (P10520 whole entry): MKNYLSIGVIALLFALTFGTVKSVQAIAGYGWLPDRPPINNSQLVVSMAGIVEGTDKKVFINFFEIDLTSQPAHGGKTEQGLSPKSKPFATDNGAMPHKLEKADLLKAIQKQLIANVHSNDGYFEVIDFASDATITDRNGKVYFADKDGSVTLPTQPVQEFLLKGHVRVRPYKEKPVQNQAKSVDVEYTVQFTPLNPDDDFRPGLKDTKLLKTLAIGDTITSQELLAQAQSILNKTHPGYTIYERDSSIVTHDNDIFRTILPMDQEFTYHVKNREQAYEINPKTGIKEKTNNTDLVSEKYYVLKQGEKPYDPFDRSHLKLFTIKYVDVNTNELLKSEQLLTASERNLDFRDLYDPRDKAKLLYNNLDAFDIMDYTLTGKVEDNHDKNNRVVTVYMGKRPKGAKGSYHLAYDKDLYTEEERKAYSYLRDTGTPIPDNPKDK
Assay: S. pyogenes streptokinase expression inhibitors, potency, dose response, plasminogen activation absorbance, OD405 (AID 1914);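 note: secreted streptokinase activity via plasminogen activation per viability signal from cell pellet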
Assay type: functional, Streptococcus pyogenes M1 GAS
The source made the active and inactive calls.

Guide cases for EC50, answers given:
compound	EC50
O=C(Cc1cccs1)NNC(=S)NC(=O)c1ccccc1	> 150 µM (not active)
c1cn2c(NC3CCCCC3)c(-c3ccc(SC4CCCCC4)cc3)nc2cn1	> 150 µM (not active)
CNS(=O)(=O)c1ccc(NC(=O)c2cnn3c(C(F)F)cc(-c4ccccc4)nc23)cc1	> 150 µM (not active)
CC(C)c1ccccc1OCC(=O)NC1CCCc2ccccc21 (stereo unspecified)	18.5 µM (active)
O=C(/C=C/c1ccccc1)NC(=S)NNC(=O)Cc1cccs1	> 150 µM (not active)

Read the next record carefully.
Prompt: Reported EC50 for Cc1ccc(NC(=O)c2nc[nH]c2C(=O)N[C@@H](C)c2ccccc2)cc1 : what is it?
Completion: > 150 µM (not active)
